Assay: Caspase-3/7 induction in CHO-K1 cells by small molecules, qHTS cell viability counter screen (AID 1346979); further: nearly all actives have a fitted effect of over 35% in size; further: potency means the concentration at half of the fitted maximal effect
Settings: CellTiter-Fluor fluorescence, 17 h; series mostly up to 92.4 µM
Results filed as inconclusive are left out. The source made the active and inactive calls. The call rests on the fitted dose curve; in most records, active means well fitted cell-killing curve with a large enough effect in the repeat runs; inconclusive means weak or mixed curves, or effect the other way; inactive means no such curve, though single readings can be large or run the other way.
Measurement label: Potency

>>> print(df.to_string())
                                    molecule            result
 0  CC1C(C)(C)C2=C(C(=O)CCC2)C1(C)C (stereo not drawn)          inactive
 1   COc1ccc(C(=O)NCc2ccc(OCCN(C)C)cc2)cc1OC          inactive
 2                       C/C(C=O)=C\c1ccccc1          inactive
 3                      C=Cc1ccc(OC(C)=O)cc1          inactive
 4                            C=C(C)c1ccccc1          inactive
 5                             CCOCCC(=O)OCC          inactive
 6                 Nc1ccc(N=Nc2ccc(N)cc2)cc1  24.3 µM (active)
 7                        [Cl][Nd]([Cl])[Cl]          inactive
 8          CCN(CC)CCNC(=O)c1cc(Cl)c(N)cc1OC          inactive
 9  CCN(Cc1cccc(S(=O)(=O)O)c1)c1ccc(C(=C2C=CC(=[N+](CC)Cc3cccc(S(=O)(=O)O)c3)C=C2)c2ccc(O)cc2S(=O)(=O)[O-])cc1  18.6 µM (active)
10                       C=CCOC(=O)COCCC(C)C          inactive
11               CC12CC3CC(C)(C1)CC(N)(C3)C2          inactive
12                       O=C(c1ccccc1)C1CCC1          inactive
